Would you mind telling me the reported Ki of each entry?
molecular target: α2-GABAA receptor (Homo sapiens, UniProt P18507+P47869); construct: expressed in transfected cells; experiment: Radioactive ligand (3H-flunitrazepam) competitive binding assay, BZD site of membrane proteins of α2-GABAAR-HEK293 cells; conditions: competition with 1 nM 3H-flunitrazepam; HEK293 membranes expressing α2, β3, γ2 subunits; Ki calculated from IC50; read-out: α2 Ki
Give bare numbers, in µM.

Consider the following illustrative entries.
>  <compound>
CCCNC(=O)c1nc2c(-c3cc(-c4cnnc5c4ncn5CC)ccc3OC)cccn2c1N [Example 71]

>  <Ki / µM>
0.00743

$$$$
>  <compound>
CCCNC(=O)c1nc2c(-c3c(Cl)cccc3OC)cccn2c1N [Example 72]

>  <Ki / µM>
0.095

$$$$
>  <compound>
CCCNC(=O)c1nc2c(-c3cc(F)cnc3OC)cccn2c1N [Example 84]

>  <Ki / µM>
0.042

$$$$
>  <compound>
CCCNC(=O)c1nc2c(-c3cccc(C)c3)cccn2c1N [Example 48]

>  <Ki / µM>
0.0142

$$$$
>  <compound>
COc1cccc(F)c1-c1cccn2c(N)c(C(=O)NC3CC(C)C3)nc12 (stereo not shown) [Example 8]

>  <Ki / µM>
0.0119

$$$$

# batch size: 7; output Ki per entry
1. CCCNC(=O)c1nc2c(-c3cc(Cl)ccc3OC)cccn2c1N [Example 62]
2. CCCNC(=O)c1nc2c(-c3cccc(C)c3F)cccn2c1N [Example 64]
3. CCCNC(=O)c1nc2c(-c3cc(C)ccc3OC)cccn2c1N [Example 49]
4. COc1ccc(F)c(F)c1-c1cccn2c(N)c(C(=O)NC3CC(C)C3)nc12 (stereo not shown) [Example 32]
5. CCCNC(=O)c1nc2c(-c3c(F)ccc(C)c3OC)cccn2c1N [Example 78]
6. COc1cccc(F)c1-c1cccn2c(N)c(C(=O)NCCCF)nc12 [Example 27]
7. CCCNC(=O)c1nc2c(-c3cccnc3OC)cccn2c1N [Example 82]

Reply:
0.00529
0.00337
0.0192
0.00733
0.0317
0.032
0.0223

Below are 4 compounds. Give each one its Ki.
1. CCCNC(=O)c1nc2c(-c3c(F)cccc3OC)nccn2c1N [Example 135]
2. COc1ccc(C)cc1-c1cccn2c(N)c(C(=O)NC3CC(C)C3)nc12 (stereo not shown) [Example 33]
3. COc1cccc(F)c1-c1cccn2c(N)c(C(=O)NC3CCC3)nc12 [Example 7]
4. CCCNC(=O)c1nc2c(-c3cc(C4CC4)ccc3OC)cccn2c1N [Example 68]

Reply:
1: 0.0811; 2: 0.0155; 3: 0.0149; 4: 0.051

Okay, here is my list. What is Ki for each of these?
1. CCCNC(=O)c1nc2c(-c3ccc(F)cc3OC)cccn2c1N [Example 53]
2. COc1ccc(C#N)cc1-c1cccn2c(N)c(C(=O)NC3CC(C)C3)nc12 (stereo not shown) [Example 34]

Reply:
1: 0.057; 2: 0.00507

###

Target: α2-GABAA receptor (Homo sapiens, UniProt P18507+P47869)
Construct: expressed in transfected cells
Assay: Whole-cell patch-clamp electrophysiology, positive allosteric modulatory activity in α2-GABAAR-HEK293 cells
Type: cell-based
Conditions: compound 100 nM; GABA 0.10 to 0.11 µM (approximately EC7-8); normalized to reference compound CVL-865 (= 100%); read-out: α2-GABAAR Positive allosteric modulatory activity
Method: The α subunit, β subunit, and γ subunit are indispensable for forming a fully functional GABAA receptor. […] The positive modulatory activity of the test drug on the α2-GABAA receptor was assessed using electrophysiological methods. […] Electrophysiological signals were acquired using an EPC 10 amplifier and PatchMaster software (HEKA) or an Axon 700B amplifier and Clampex software (AXON). […] The cell membrane potential was clamped at -60 mV and recorded in Gap-free mode. […]
Hi there, I'd appreciate the recorded Emax at 0.1 µM for every entry that follows.
One number for each entry, in %.

Look up Emax at 0.1 µM for the entries below, preserving their order.
1. CCCNC(=O)c1nc2c(-c3cc(OC)ccc3OC)cccn2c1N
2. CCCNC(=O)c1nc2c(-c3cc(OC)nnc3OC)c(F)ccn2c1N
3. CCCNC(=O)c1nc2c(-c3c(F)ccc4c3oc(=O)n4C)cccn2c1N
4. CCCNC(=O)c1nc2c(-c3cccc(F)c3)cccn2c1N
5. [2H]c1ccc(OC)c(-c2cccn3c(N)c(C(=O)NCCC)nc23)c1F

Reply:
70
88
160
50
91

Please state Emax at 0.1 µM for every compound in the list that follows.
1. CCCNC(=O)c1nc2c(-c3c(F)ccc(Cl)c3OC)cccn2c1N
2. CCCNC(=O)c1nc2c(-c3cc4oc(=O)n(C)c4cc3OC)cccn2c1N
3. CCCNC(=O)c1nc2c(-c3c(OC)ccc(C)c3F)cccn2c1N

Reply:
77
62
126

Task item: Please report the recorded Emax at 0.1 µM for CCCNC(=O)c1nc2c(-c3cccc(C#N)c3)c(F)ccn2c1N .
Reply: 99
